- assayed_target: T1, HLA-A3 (A*0301) (human)
- T1 construct: HLA class I on acid-stripped EBV-transformed B cells (B-LCL)
- experiment_notes: competition vs KVFPC(FI)ALINK on stripped B-LCL, FACS
Overview of recorded IC50 for various binders
observable: IC50 (nM)

- binder: "CLPLGVLMK [PRAME 80-88 CLPLGVLMK]"
  observable: "IC50"
  modifier: "<"
  endpoint_value: 1000
- binder: "HLIGLSNLTH [PRAME 429-438 HLIGLSNLTH]"
  observable: "IC50"
  modifier: "="
  endpoint_value: 4000
- binder: "SMSVWTSPR (also called PRA16-24; PRA(16-24)) [PRAME 16-24 SMSVWTSPR]"
  observable: "IC50"
  modifier: "<"
  endpoint_value: 1000
- binder: "CTWKLPTLAK [PRAME 242-251 CTWKLPTLAK]"
  observable: "IC50"
  modifier: "="
  endpoint_value: 700

From: patent US20160333065A1
